Kindly supply the reported inhibition at 100 µM values for the records listed here.
Subject of test: human Fatty Acid Synthase (Homo sapiens)
Construct: made in house
Sequence (P49327 whole entry): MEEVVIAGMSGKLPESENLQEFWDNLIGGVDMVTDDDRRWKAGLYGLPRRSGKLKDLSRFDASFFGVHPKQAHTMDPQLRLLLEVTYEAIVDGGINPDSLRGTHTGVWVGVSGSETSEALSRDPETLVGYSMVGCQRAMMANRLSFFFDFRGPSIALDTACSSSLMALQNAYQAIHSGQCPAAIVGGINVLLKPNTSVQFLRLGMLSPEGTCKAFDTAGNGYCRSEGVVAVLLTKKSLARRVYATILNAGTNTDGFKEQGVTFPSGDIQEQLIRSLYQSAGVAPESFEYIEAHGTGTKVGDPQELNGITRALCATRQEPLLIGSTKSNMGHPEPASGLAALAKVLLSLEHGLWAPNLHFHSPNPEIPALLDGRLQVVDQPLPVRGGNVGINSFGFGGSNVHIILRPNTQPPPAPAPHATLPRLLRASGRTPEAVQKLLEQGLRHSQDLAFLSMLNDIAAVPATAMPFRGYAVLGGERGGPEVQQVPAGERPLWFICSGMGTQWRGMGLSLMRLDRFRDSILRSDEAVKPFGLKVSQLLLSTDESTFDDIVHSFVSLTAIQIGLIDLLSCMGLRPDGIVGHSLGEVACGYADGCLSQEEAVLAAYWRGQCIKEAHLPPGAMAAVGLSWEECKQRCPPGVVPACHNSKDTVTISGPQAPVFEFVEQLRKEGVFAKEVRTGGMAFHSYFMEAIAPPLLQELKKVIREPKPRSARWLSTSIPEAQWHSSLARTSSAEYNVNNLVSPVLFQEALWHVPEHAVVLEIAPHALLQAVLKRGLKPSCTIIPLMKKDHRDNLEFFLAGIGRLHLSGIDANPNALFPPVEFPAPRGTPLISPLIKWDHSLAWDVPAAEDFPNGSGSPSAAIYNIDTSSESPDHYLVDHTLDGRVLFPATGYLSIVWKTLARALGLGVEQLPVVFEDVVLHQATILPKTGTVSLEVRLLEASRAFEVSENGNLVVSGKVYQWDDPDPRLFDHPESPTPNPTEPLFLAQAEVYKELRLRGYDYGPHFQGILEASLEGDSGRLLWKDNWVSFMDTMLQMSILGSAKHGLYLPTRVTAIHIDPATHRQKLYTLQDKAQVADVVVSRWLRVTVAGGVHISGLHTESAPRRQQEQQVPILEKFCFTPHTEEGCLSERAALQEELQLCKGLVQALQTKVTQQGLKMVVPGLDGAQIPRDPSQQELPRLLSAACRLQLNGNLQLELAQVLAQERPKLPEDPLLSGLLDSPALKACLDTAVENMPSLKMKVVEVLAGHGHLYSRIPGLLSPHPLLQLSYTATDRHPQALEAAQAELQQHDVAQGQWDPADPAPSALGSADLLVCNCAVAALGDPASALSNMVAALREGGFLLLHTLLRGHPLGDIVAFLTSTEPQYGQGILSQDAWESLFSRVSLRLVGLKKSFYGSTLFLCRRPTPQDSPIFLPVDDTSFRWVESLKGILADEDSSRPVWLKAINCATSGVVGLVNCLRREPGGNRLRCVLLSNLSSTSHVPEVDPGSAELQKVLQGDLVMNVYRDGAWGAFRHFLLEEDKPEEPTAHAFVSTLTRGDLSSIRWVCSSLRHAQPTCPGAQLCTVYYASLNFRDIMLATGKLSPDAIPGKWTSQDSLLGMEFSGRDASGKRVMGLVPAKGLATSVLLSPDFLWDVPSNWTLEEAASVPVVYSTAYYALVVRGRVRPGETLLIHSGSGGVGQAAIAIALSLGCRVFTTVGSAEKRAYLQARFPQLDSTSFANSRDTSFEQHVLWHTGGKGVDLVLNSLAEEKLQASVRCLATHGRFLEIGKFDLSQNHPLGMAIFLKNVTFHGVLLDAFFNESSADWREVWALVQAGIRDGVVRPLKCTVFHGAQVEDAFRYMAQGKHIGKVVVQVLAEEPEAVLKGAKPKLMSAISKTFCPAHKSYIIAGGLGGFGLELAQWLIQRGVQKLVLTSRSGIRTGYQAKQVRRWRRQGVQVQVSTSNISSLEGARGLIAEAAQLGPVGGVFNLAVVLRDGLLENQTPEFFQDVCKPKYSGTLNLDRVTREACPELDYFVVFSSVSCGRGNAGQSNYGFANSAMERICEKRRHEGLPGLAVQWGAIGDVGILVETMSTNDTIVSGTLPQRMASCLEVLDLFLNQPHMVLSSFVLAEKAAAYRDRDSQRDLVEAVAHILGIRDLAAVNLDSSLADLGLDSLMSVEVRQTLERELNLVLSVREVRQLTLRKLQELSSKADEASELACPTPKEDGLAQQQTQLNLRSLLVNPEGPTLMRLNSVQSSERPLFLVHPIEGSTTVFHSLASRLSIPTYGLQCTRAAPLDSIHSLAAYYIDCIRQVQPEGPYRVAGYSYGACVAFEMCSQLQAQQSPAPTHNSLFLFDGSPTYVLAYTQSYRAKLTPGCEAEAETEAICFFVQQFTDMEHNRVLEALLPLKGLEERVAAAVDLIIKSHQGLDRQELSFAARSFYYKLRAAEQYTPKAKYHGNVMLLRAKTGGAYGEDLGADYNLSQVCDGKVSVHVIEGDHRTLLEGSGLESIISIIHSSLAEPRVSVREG
Procedure summary: Human FAS enzyme assay (decrease in NADPH fluorescence)
Assay type: biochemical
Test settings: % inhibition at a concentration of 100 μmolar

Specify inhibition at 100 µM for Cc1ccc(C(=O)N2CCC(c3ccc(C(F)(F)F)cc3)CC2)cc1NC(=O)NC1CCCNC1 (stereo not drawn) [Example 337] and stop.
90.1%

Specify inhibition at 100 µM for CC(=O)NCCNC(=O)Nc1cc(C(=O)N2CCC(c3ccc(C(F)(F)F)cc3)CC2)ccc1C [Example 326] and stop.
91.8%

Specify inhibition at 100 µM for COCCNC(=O)Nc1cc(C(=O)N2CCC(c3ccc(C#N)cc3)CC2)c(C)cc1C [Example 412] and stop.
89.9%

* * *

Kindly supply the reported inhibition at 100 µM values for the records listed here.
Subject of test: human Fatty Acid Synthase (Homo sapiens)
Construct: made in house
Procedure summary: Human FAS enzyme assay (decrease in NADPH fluorescence)
Format: biochemical
Test settings: % inhibition at a concentration of 100 μmolar
Reply with just the number (in %).

Find inhibition at 100 µM for Cc1ccc(C(=O)N2CCC(c3ccc(C#N)cc3)CC2)cc1NC(=O)N[C@H]1CCCC[C@H]1NS(C)(=O)=O (relative stereo) on human Fatty Acid Synthase (Homo sapiens) and write it down.
96.1

Find inhibition at 100 µM for Cc1cc(C)n(CCNC(=O)Nc2cc(C(=O)N3CCC(c4ccc(C#N)cc4)CC3)ccc2C)n1 on human Fatty Acid Synthase (Homo sapiens) and write it down.
97.5

Find inhibition at 100 µM for Cc1ccc(C(=O)N2CCC(c3ccc(C#N)cc3)CC2)cc1NC(=O)NC1CCCCC1 on human Fatty Acid Synthase (Homo sapiens) and write it down.
82.1

Find inhibition at 100 µM for Cc1ccc(C(=O)N2CCC(c3ccc(C#N)cc3)CC2)cc1NC(=O)NCCCN1CCCCCC1=O on human Fatty Acid Synthase (Homo sapiens) and write it down.
95.9

Find inhibition at 100 µM for Cc1ccc(C(=O)N2CCC(c3ccc(C#N)cc3)CC2)cc1NC(=O)NCCCNS(=O)(=O)C(C)C on human Fatty Acid Synthase (Homo sapiens) and write it down.
87

Find inhibition at 100 µM for CC(=O)OCC(=O)NCCNC(=O)Nc1cc(C(=O)N2CCC(c3ccc(C#N)cc3)CC2)ccc1C on human Fatty Acid Synthase (Homo sapiens) and write it down.
92.7

Find inhibition at 100 µM for Cc1ccc(C(=O)N2CCC(c3ccc(C#N)cc3)CC2)cc1NC(=O)NCCc1ccc(S(N)(=O)=O)cc1 on human Fatty Acid Synthase (Homo sapiens) and write it down.
96.8
